Biological target: T1, human CD3e (T-cell surface glycoprotein CD3 epsilon chain) (human, UniProt P07766 23-207)
T1 construct: Target of the anti-hCD3e antibodies on human PBMC, Jurkat cells and cells expressing human CD3e; on T cells it is part of the CD3/TCR complex; also called hCD3e; CD3e on human PBMC
Experiment: flow cytometry, human PBMC, antibody 10 µg/mL, anti-human IgG Fc-Alexa Fluor647 (1:500), anti-hTcRβ-PerCP (1:30)
attribute.measured: upper right quadrant, percent of cells AF647+ / hTcRβ-PerCP+ (%)
Quick note: give the figure in %, leave out the unit.

The binder listed as 1B1-H4K2-IgG1-LALA (antibody, V domains shown, Humanized; human IgG1 with LALA mutations; also called H4K2 (humanized 1B1)) VH: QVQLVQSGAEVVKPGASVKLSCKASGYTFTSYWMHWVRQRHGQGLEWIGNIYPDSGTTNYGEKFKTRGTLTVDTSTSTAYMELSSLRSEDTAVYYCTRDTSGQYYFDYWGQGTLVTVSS VL: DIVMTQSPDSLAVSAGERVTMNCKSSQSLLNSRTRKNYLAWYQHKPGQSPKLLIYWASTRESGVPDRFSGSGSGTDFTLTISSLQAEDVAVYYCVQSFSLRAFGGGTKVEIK has a reported upper right quadrant, percent of cells AF647+ / hTcRβ-PerCP+ of 59.7

The binder listed as 1B1-H2K2-IgG1-LALA (antibody, V domains shown, Humanized; human IgG1 with LALA mutations; also called H2K2 (humanized 1B1)) VH: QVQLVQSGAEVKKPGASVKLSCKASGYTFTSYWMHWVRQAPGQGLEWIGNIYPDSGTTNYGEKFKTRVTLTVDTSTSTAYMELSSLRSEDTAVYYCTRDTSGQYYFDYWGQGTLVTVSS VL: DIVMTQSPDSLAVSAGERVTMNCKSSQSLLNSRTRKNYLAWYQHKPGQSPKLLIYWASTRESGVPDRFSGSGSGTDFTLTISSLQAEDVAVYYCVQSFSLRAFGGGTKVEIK has a reported upper right quadrant, percent of cells AF647+ / hTcRβ-PerCP+ of 63.3

The binder listed as 1B1-H3K2-IgG1-LALA (antibody, V domains shown, Humanized; human IgG1 with LALA mutations; also called H3K2 (humanized 1B1)) VH: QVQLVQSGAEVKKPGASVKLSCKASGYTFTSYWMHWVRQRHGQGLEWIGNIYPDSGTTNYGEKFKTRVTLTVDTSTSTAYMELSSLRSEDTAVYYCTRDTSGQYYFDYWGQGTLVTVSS VL: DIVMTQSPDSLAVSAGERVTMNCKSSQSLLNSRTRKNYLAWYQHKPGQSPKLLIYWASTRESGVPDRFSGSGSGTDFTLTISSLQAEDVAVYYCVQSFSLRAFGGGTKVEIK has a reported upper right quadrant, percent of cells AF647+ / hTcRβ-PerCP+ of 62

The binder listed as 1B1-H2K1-IgG1-LALA (antibody, V domains shown, Humanized; human IgG1 with LALA mutations; also called H2K1 (humanized 1B1)) VH: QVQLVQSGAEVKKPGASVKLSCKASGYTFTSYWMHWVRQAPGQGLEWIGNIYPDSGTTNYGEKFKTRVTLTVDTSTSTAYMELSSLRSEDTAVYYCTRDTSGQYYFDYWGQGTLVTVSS VL: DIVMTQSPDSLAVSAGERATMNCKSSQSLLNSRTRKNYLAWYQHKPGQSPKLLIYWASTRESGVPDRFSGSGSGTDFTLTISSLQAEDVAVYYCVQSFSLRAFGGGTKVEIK has a reported upper right quadrant, percent of cells AF647+ / hTcRβ-PerCP+ of 65.4

The binder listed as 1B1-H3K1-IgG1-LALA (antibody, V domains shown, Humanized; human IgG1 with LALA mutations; also called H3K1 (humanized 1B1)) VH: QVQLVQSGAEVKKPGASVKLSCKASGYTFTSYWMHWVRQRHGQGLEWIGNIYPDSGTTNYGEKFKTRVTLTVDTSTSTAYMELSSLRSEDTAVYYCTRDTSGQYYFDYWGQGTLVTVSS VL: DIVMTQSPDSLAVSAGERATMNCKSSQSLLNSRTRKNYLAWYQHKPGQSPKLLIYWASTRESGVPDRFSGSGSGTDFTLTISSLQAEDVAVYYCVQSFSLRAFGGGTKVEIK has a reported upper right quadrant, percent of cells AF647+ / hTcRβ-PerCP+ of 65.2

Taken from patent US20210269525A1.
